- System under test: pSTAT3 (pY705-STAT3) (Homo sapiens, UniProt P40763)
- Construct: host or cells: cryopreserved PBMC
- Sequence (P40763 whole entry): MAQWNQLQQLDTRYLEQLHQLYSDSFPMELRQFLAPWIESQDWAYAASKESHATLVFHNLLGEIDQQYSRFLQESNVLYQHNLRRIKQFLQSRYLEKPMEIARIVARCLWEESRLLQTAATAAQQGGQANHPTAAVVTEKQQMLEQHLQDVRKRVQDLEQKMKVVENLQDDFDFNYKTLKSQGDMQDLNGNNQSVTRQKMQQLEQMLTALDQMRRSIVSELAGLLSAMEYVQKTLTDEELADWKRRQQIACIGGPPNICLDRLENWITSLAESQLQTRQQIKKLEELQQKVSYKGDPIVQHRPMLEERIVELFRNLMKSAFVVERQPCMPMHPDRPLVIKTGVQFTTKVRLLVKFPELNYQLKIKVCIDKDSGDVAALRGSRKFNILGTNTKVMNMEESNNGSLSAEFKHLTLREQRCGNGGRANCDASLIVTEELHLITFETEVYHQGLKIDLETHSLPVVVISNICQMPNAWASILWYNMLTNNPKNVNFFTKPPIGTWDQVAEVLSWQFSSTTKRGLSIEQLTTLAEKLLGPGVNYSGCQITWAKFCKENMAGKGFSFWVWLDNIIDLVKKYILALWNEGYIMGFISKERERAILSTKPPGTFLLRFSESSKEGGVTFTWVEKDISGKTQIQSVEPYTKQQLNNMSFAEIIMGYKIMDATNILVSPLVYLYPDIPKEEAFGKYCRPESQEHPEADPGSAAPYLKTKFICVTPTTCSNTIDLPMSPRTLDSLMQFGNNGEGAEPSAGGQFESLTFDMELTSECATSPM
- Protocol text: MSD-pSTAT-PBMC Assay (pSTAT3, IL-6 stimulated)
- Format: cell-based
- Particulars: PBMC, compound 3 hrs, then 10 ng/mL IL-6 for 10 min; MSD pY705-STAT3; read-out: pSTAT3
Measured attribute: IC50

# example entries with known answers
>>> value_reported("C[C@H](OP(=O)(Oc1ccccc1)C(F)(F)c1ccc2sc(C(=O)N[C@H]3C[C@@H]4C[C@@H]4C[C@H]4CC[C@@H](C(=O)N5CC(C(=O)N6CCOCC6)C5)N4C3=O)cc2c1)C(=O)OCc1ccccc1 (stereo partly drawn)")
"1000 to 3000 nM"
>>> value_reported("CCCOC(=O)[C@H](C)NP(=O)(Cc1ccc2sc(C(=O)N[C@H]3C[C@@H]4C[C@@H]4C[C@H]4CC[C@@H](C(=O)N5CC(c6cnccc6C)C5)N4C3=O)cc2c1)OCC(F)(F)F (stereo partly drawn)")
"< 100 nM"

Could you tell me IC50 for each of these molecules? They are listed below.
1. CC(C)OC(=O)COP(=O)(Oc1ccccc1)C(F)(F)c1ccc2sc(C(=O)N[C@H]3C[C@@H]4C[C@@H]4C[C@H]4CC[C@@H](C(=O)N5CC(C(=O)N6CCOCC6)C5)N4C3=O)cc2c1 (stereo partly drawn)
2. CC(C)(C)C(=O)OCOP(=O)(OCOC(=O)C(C)(C)C)C(F)(F)c1ccc2sc(C(=O)N[C@H]3C[C@@H]4C[C@@H]4C[C@H]4CC[C@@H](C(=O)N5CC(C(=O)N6CCOCC6)C5)N4C3=O)cc2c1

Reply text:
100 to 1000 nM
< 100 nM

Could you tell me IC50 for each of these molecules? They are listed below.
1. CCCOC(=O)[C@H](C)NP(=O)(Oc1ccccc1)C(F)c1ccc2sc(C(=O)N[C@H]3C[C@H]4C[C@H]4C[C@H]4CC[C@@H](C(=O)N5CC(c6cnccc6OC)C5)N4C3=O)cc2c1 (stereo partly drawn)
2. Cc1ccncc1C1CN(C(=O)[C@@H]2CC[C@@H]3C[C@H]4C[C@H]4C[C@H](NC(=O)c4cc5cc(C(F)P(=O)(N[C@@H](C)C(=O)OCC(C)C)Oc6ccccc6)ccc5s4)C(=O)N32)C1 (stereo partly drawn)
3. CC(C)(CO)C(=O)SCCOP(=O)(OCCSC(=O)C(C)(C)CO)C(F)(F)c1ccc2sc(C(=O)N[C@H]3C[C@@H]4C[C@@H]4C[C@H]4CC[C@@H](C(=O)N5CC(n6ccnc6)C5)N4C3=O)cc2c1
4. CCCC(=O)SCCOP(=O)(OCCSC(=O)CCC)C(F)(F)c1ccc2sc(C(=O)N[C@H]3C[C@@H]4C[C@@H]4C[C@H]4CC[C@@H](C(=O)N5CC(n6ccnc6)C5)N4C3=O)cc2c1
5. CC(C)(C)C(=O)OCOP(=O)(OCOC(=O)C(C)(C)C)C(F)(F)c1ccc2sc(C(=O)N[C@H]3C[C@@H]4C[C@@H]4C[C@H]4CC[C@@H](C(=O)Nc5ccc(-c6ccccc6)cc5)N4C3=O)cc2c1
6. CC(C)OC(=O)[C@H](C)NP(=O)(Oc1ccccc1)C(F)c1ccc2sc(C(=O)N[C@H]3C[C@@H]4C[C@@H]4C[C@H]4CC[C@@H](C(=O)N5CC(C(=O)N6CCOCC6)C5)N4C3=O)cc2c1 (stereo partly drawn)

Reply text:
["< 100 nM", "< 100 nM", "1000 to 3000 nM", "< 100 nM", "100 to 1000 nM", "100 to 1000 nM"]

Could you tell me IC50 for each of these molecules? They are listed below.
1. CC(C)CC(=O)SCCOP(=O)(Oc1ccccc1)C(F)(F)c1ccc2sc(C(=O)N[C@H]3C[C@@H]4C[C@@H]4C[C@H]4CC[C@@H](C(=O)N5CC(C(=O)N6CCOCC6)C5)N4C3=O)cc2c1 (stereo partly drawn)
2. CC(C)(O)CC(=O)SCCOP(=O)(OCCSC(=O)CC(C)(C)O)C(F)(F)c1ccc2sc(C(=O)NC3CC4CC4CC4CCC(C(=O)N5CC(n6ccnc6)C5)N4C3=O)cc2c1 (stereo not drawn)
3. CCCOC(=O)[C@H](C)NP(=O)(Oc1ccccc1)C(F)c1ccc2sc(C(=O)N[C@H]3C[C@@H]4C[C@@H]4C[C@H]4CC[C@@H](C(=O)N5CC(c6nc(C)no6)C5)N4C3=O)cc2c1 (stereo partly drawn)
4. CC(C)(C)C(=O)OCOP(=O)(OCOC(=O)C(C)(C)C)C(F)(F)c1ccc2sc(C(=O)N[C@H]3C[C@H]4C[C@H]4C[C@H]4CC[C@@H](C(=O)N5CC(c6c[nH]cn6)C5)N4C3=O)cc2c1

Reply text:
1: 100 to 1000 nM; 2: 1000 to 3000 nM; 3: < 100 nM; 4: < 100 nM

Could you tell me IC50 for each of these molecules? They are listed below.
1. CCCOC(=O)C(C)(C)NP(=O)(Oc1ccccc1)C(F)c1ccc2sc(C(=O)N[C@H]3C[C@@H]4C[C@@H]4C[C@H]4CC[C@@H](C(=O)N5CC(c6cnccc6C)C5)N4C3=O)cc2c1 (stereo partly drawn)
2. CC(C)(C)C(=O)SCCOP(=O)(OCCSC(=O)C(C)(C)C)C(F)(F)c1ccc2sc(C(=O)N[C@H]3C[C@@H]4C[C@@H]4C[C@H]4CC[C@@H](C(=O)N5CC(F)(c6ccccc6)C5)N4C3=O)cc2c1
3. CC(C)(C)C(=O)OCOP(=O)(OCOC(=O)C(C)(C)C)C(F)(F)c1ccc2sc(C(=O)N[C@H]3C[C@@H]4C[C@@H]4C[C@H]4CC[C@@H](C(=O)N5CC(c6ccccn6)C5)N4C3=O)cc2c1
4. CCCOC(=O)[C@H](C)NP(=O)(Cc1ccc2sc(C(=O)N[C@H]3C[C@@H]4C[C@@H]4C[C@H]4CC[C@@H](C(=O)N5CC(c6cnccc6F)C5)N4C3=O)cc2c1)Oc1ccccc1 (stereo partly drawn)

Reply text:
< 100 nM
100 to 1000 nM
< 100 nM
< 100 nM
